Ref: paper PMC4339880

Sequence of the target: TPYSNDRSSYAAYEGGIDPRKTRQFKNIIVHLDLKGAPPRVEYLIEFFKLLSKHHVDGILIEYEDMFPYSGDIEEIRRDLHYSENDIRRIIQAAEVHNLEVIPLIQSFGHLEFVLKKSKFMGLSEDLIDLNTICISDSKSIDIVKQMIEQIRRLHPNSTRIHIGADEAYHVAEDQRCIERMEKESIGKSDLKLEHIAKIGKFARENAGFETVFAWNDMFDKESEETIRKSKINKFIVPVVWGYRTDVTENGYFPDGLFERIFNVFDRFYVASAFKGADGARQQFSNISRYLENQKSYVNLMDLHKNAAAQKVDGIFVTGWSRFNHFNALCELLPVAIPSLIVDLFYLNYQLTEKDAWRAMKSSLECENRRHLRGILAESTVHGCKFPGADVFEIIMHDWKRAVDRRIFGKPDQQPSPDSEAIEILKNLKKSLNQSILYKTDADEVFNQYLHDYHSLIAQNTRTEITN
pKi: −log10 of the molar value.
QUANTITY: pKi

COMPOUND: CC(=O)N[C@H]1C(O)O[C@H](CO)[C@H](O)[C@@H]1O (stereo partly shown) [GalNAc, N-acetylgalactosamine]
QUANTITY: pKi
REPORTED_VALUE: 3.00
